Every entry's value here was drawn from the RNAGym collection of RNA variant scans (doi:10.1126/science.aae0568).

B1: tRNA (parent)
chain: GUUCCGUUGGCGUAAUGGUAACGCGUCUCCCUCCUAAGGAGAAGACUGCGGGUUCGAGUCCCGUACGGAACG

Variants of: B1
PROTOCOL DETAILS: yeast fitness relative to wild type (ratio to wild type); higher = fitter; tRNA-Arg(CCU), competitive growth, 37 C, YPD
Fewer inactive variants are shown than the library holds.
Lab note: anything with yeast fitness at or over 0.6 counts as TRUE; the rest go in FALSE.

| MUTANT DESIGNATION | LABEL CLASS |
| --- | --- |
| C4A C5U C34U | FALSE |
| U3G U26A A70C | TRUE |
| C5G A14C U28A C31A A45U C49A C66U | FALSE |
| A45G U47C | TRUE |
| A15G U26C G56A A69U | FALSE |
| G6C G10A A36U G63A | FALSE |
| U3C U8A G25A A45G | FALSE |
| A14U C29U C30A A45C | FALSE |
| C66G | TRUE |
| A20C C22A A36C A69U | FALSE |
| C4A A21G C49G G63C | FALSE |
| C24A U26A | FALSE |
| C5A A20G A40G C49U | FALSE |
| C4G G10U A14U C24U C33U G52A | FALSE |
| C4G U59G | TRUE |
| A21G C49U U53C C61G | FALSE |
| G25C A43U A45G | FALSE |
| C11G A20G U32A | FALSE |
| A20U G51C A65G | FALSE |
| U28A C55A | FALSE |
| U19A G25C C33A A37G G68A | FALSE |
| G10U G17A C24A | TRUE |
| U8C A43C | TRUE |
| G23C A40C | TRUE |
| C11G A21G A40G A69U | FALSE |
| C24U A45G C49U | TRUE |
| G23C G58U | FALSE |
| C4U G12C C29U C31U U54G A65U G67A | FALSE |
| C4A G18C C46G | FALSE |
| G25A C49U C55U | TRUE |
| A14U G17C C24A C30G | FALSE |
| C11G U19A A21G C27U G39C | FALSE |
| U13A G23C A37C G38A | FALSE |
| U26A C31U G48A | TRUE |
| U3C G12A A21G C46G G50A | FALSE |
| C11A C22U U54C | FALSE |
| C5U C34U A40C | FALSE |
| A40G C49U U59A | FALSE |
| A15G G23C U28A | FALSE |
| U47A C62A | TRUE |
| U3C C22G A70C | TRUE |
| C4A A45C U47A A70G | FALSE |
| U16A A21C A45U C60U G67C | FALSE |
| U7A G44C C61A C62U C66U | FALSE |
